Tested on: LTD4
protocol_description: LTD4 antagonism in isolated guinea-pig trachea with indomethacin (method (ii))
Format: cell-based
measurement_parameters: Cavia porcellus, 0.5 h, 10^-6 g/ml test compound, 30 min prior to LTD4
Protocol: (ii) LTD4 antagonism in guinea-pig trachea Antagonism for LTD4 was determined in isolated guinea-pig trachea prepared as spiral strip. Tracheal preparations were suspended under 1 g tension in 10 ml organ baths containing […] of indomethacin and they were incubated for 1 hr prior to use. […] LTD4 -induced contractions were expressed as a percentage of the maximal response to histamine. The antagonism was determined as follows: […]
Criterion met means recorded inhibition at 1 µg/mL is 40% or above; Criterion not met means it is below 40%.

Form field: inhibition at 1 µg/mL at least 40%? Entry: CCCc1c(OCC(O)COc2ccc3c(=O)cc(C(=O)O)oc3c2CCC)ccc(C(C)=O)c1O (centres unmarked) [FPL-55712, reference compound]
Criterion met

Also need CCOc1cccc(CNc2cnn(Cc3ccccc3)c(=O)c2Cl)c1 [compound 50] , thanks.
Criterion not met

Next entry: Cc1ccc(CNc2cn[nH]c(=O)c2Br)c(C)c1 [compound 53]
Criterion not met

Also, CCCCCCOc1cc(CNc2cn[nH]c(=O)c2Cl)ccc1OC [compound 40] please.
Criterion met

Next record, please: COc1ccc(CNc2cn[nH]c(=O)c2Cl)cc1OCc1ccccc1 [compound 54]
Criterion met

----------
Tested on: LTC4
protocol_description: LTC4 antagonism in isolated guinea-pig trachea (method (i))
Assay type: cell-based
measurement_parameters: Cavia porcellus, 5 min; 10^-5 g/ml test compound, 5 min prior to LTC4 (2×10^-8 g/ml)
Answer each item with its documented inhibition at 10 µg/mL.
Give the value in % but do not write % after it.

Can you look up the measured inhibition at 10 µg/mL of CCOc1cc(CNc2cnn(C)c(=O)c2Cl)ccc1OC for me?
81

Continue with COc1ccc(CNc2cnn(CC(=O)O)c(=O)c2Cl)cc1OC
29

Entry CCCc1c(OCC(O)COc2ccc3c(=O)cc(C(=O)O)oc3c2CCC)ccc(C(C)=O)c1O (stereo not shown) [FPL-55712, reference compound] please
100

Param item: COc1cccc(CNc2cnn(C3CCCC3)c(=O)c2Cl)c1
97

Where these numbers come from: patent US4892947A
